Data credit: ChEMBL document CHEMBL5528002

# target.of.assay: Polyunsaturated fatty acid 5-lipoxygenase (Homo sapiens)
# protocol.description: Inhibition of 5-LOX in human Neutrophil assessed as enzyme remaining activity at 10 uM using arachidonic acid as substrate preincubated with compound for 15 mins followed by substrate and A23187 addition measured after 10 mins by RP-HPLC analysis relative to control
# Assay type: cell-based
# condition.details: time 25.0 min
parameter: Activity (%)
One number for each entry, in %.

Some solved entries appear below for comparison.
Task item: // Activity lookup, key: O=C1NC(=O)C(CCC(=O)c2ccc3ccccc3c2)C(=O)N1
Reply: 94.8

Task item: Request the reported Activity associated with O=C(/C=C/c1ccccc1)CCc1c(O)c2ccccc2oc1=O
Reply: 60.1

Task item: If you can, please state the reported Activity value of O=C(c1nc2ccc(Cl)cc2nc1O)C(O)c1ccc2c(c1)OCO2 (stereo unspecified) .
Reply: 90.7

Task item: What does the data say about its Activity? Entry: O=C1Nc2ccccc2/C1=N/NS(=O)(=O)c1ccc(C(=O)O)cc1
Reply: 88.2

Task item: Please look up its Activity: Nc1nc(N)c2cc([S+]([O-])c3ccc4ccccc4c3)ccc2n1 (stereo unspecified)
Reply: 82.1

Task item: Entry under review: Cn1c(=O)c2nc(CCCc3nc4ccccc4[nH]3)[nH]c2n(C)c1=O . Reported Activity?
Reply: 98.3

Would you mind listing Activity for each of the following molecules?
1. NS(=O)(=O)c1ccc(NCc2cnc3ccccc3c2)cc1
2. CC(=O)c1cccc(NC(=O)Oc2ccc3c(C)cc(=O)oc3c2)c1
3. O=C1CCC(CCc2nc3ccccc3[nH]2)(c2ccccc2)C(=O)N1 (stereo unspecified)

Reply:
1. 95.3
2. 106
3. 110

// for each molecule below, give its Activity
1. O=C(O)c1cnc2cc(OCCc3ccc(F)cc3)ccc2c1O
2. CC(=O)c1cccc2cc(CC(=O)c3ccccc3)c(=O)oc12

Reply:
1: 87.6; 2: 94.9

---

# target.of.assay: Polyunsaturated fatty acid 5-lipoxygenase (Homo sapiens)
# Sequence (whole entry): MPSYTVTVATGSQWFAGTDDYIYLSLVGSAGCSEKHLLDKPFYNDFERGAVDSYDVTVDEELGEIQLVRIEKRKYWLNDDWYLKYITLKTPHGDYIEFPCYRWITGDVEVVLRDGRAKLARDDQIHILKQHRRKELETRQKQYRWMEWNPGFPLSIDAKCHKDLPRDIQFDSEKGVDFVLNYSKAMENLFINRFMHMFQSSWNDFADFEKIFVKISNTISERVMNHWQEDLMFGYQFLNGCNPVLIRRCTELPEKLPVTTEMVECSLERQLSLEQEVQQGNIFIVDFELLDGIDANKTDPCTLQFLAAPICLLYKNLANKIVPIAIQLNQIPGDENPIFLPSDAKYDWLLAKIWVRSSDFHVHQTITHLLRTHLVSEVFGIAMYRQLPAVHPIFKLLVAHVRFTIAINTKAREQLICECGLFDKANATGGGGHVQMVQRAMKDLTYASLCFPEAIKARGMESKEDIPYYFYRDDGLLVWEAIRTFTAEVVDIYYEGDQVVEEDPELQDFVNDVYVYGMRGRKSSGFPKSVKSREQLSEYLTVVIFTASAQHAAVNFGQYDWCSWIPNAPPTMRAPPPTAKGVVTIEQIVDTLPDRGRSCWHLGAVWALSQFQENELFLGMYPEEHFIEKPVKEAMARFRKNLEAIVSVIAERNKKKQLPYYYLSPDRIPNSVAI
# protocol.description: Inhibition of 5-LOX in human Neutrophil at 10 uM preincubated with compound for 15 mins followed by A23187 addition measured after 10 mins by RP-HPLC analysis relative to control
# Format: cell-based
# condition.details: time 25.0 min
Calls of active or inactive are those of the source. No cut-off for these calls is given here.
parameter: inhibition

Example cases with answers are listed next.
Task item: Provide value of inhibition for this record tested with Polyunsaturated fatty acid 5-lipoxygenase (Homo sapiens): CC(=O)NC(CCc1ccc(Cl)c(Cl)c1)c1cccc(O)c(=O)c1 (stereo not drawn)
Reply: > 50%

Task item: Which inhibition is reported with Polyunsaturated fatty acid 5-lipoxygenase (Homo sapiens) for this entry: CC(=O)c1ccc(NCN2C(=O)c3ccccc3C2=O)cc1 ?
Reply: inactive

Task item: Param readout = inhibition; param system = Polyunsaturated fatty acid 5-lipoxygenase (Homo sapiens); param query = O=C1N=C(Nc2nc3ccccc3[nH]2)OC1c1ccccc1 (stereo not drawn) ; response: value
Reply: inactive

Task item: Form field - read-out: inhibition; system: Polyunsaturated fatty acid 5-lipoxygenase (Homo sapiens); submitted item: O=C(c1ccc2ccccc2n1)C(O)c1ccc2ccccc2n1 (stereo not drawn)
Reply: inactive

Task item: Query for Polyunsaturated fatty acid 5-lipoxygenase (Homo sapiens): what inhibition does the record show for Cc1cc(=O)oc(C)c1C(=O)Oc1ccc2ccccc2c1 ?
Reply: inactive

Hi there! I need inhibition for each item below, if you can.
1. Oc1nc(Cc2ccc3ccccc3n2)cc(-c2ccccc2)n1
2. O=C(/C=C/c1ccccc1)NCCC1(O)C(=O)Nc2ccccc21 (stereo not drawn)
3. O=C1NC(=O)C(CCC(=O)c2ccc3ccccc3c2)C(=O)N1

Reply:
1: 37%; 2: inactive; 3: 37%

---

Give Activity for every item shown.
# target.of.assay: Polyunsaturated fatty acid 5-lipoxygenase (Homo sapiens)
# protocol.description: Inhibition of 5-LOX in human Neutrophil assessed as enzyme remaining activity at 10 uM preincubated with compound for 15 mins followed by A23187 addition measured after 10 mins by RP-HPLC analysis relative to control
# Type: cell-based
# condition.details: time 25.0 min
Give bare numbers, in %.

# example entries with known answers
Task item: # returns recorded Activity (system: Polyunsaturated fatty acid 5-lipoxygenase (Homo sapiens)) for O=C1Nc2ccccc2/C1=N/NS(=O)(=O)c1ccc(C(=O)O)cc1
Reply: 93.1

Task item: Form: Entry = Nc1nc(N)c2cc([S+]([O-])c3ccc4ccccc4c3)ccc2n1 (stereo not drawn) | System = Polyunsaturated fatty acid 5-lipoxygenase (Homo sapiens) | Activity = ____
Reply: 62

Task item: Provide value of Activity for this record tested with Polyunsaturated fatty acid 5-lipoxygenase (Homo sapiens): CC(=O)c1ccc(NCN2C(=O)c3ccccc3C2=O)cc1
Reply: 72.8

Task item: Form field - read-out: Activity; system: Polyunsaturated fatty acid 5-lipoxygenase (Homo sapiens); submitted item: O=C(c1ccc2ccccc2n1)C(O)c1ccc2ccccc2n1 (stereo not drawn)
Reply: 111

Task item: Identify the measured Activity of O=C1C(C(O)c2ccccc2)CCCC1C(O)c1ccccc1 (stereo not drawn) for Polyunsaturated fatty acid 5-lipoxygenase (Homo sapiens).
Reply: 152

Task item: Item: NNC(=O)CCc1ccc2ccc3ccccc3c2c1 Test system: Polyunsaturated fatty acid 5-lipoxygenase (Homo sapiens) Read-out: Activity Value: ?
Reply: 80.2

Task item: What reported Activity corresponds to Oc1ccc(CCC2CCC(c3ccc(O)cc3)CO2)cc1 (stereo not drawn) on Polyunsaturated fatty acid 5-lipoxygenase (Homo sapiens)?
Reply: 4.2

Task item: Which Activity is reported with Polyunsaturated fatty acid 5-lipoxygenase (Homo sapiens) for this entry: O=C(c1nc2ccc(Cl)cc2nc1O)C(O)c1ccc2c(c1)OCO2 (stereo not drawn) ?
Reply: 101

Task item: What is its Activity for Polyunsaturated fatty acid 5-lipoxygenase (Homo sapiens)? Entry: Cc1ccc(Nc2nnc(-c3ccc4c(c3)OCO4)o2)c(C)c1
Reply: 106

Task item: Please tell me: Activity of CC(=O)c1cccc2cc(CC(=O)c3ccccc3)c(=O)oc12 , system Polyunsaturated fatty acid 5-lipoxygenase (Homo sapiens)?
Reply: 81.6

// each compound listed below needs its Activity
1. O=C1C/C(=C/c2cccc(OCc3ccccc3)c2)C(=O)N1
2. N=c1c2c(ncn1Cc1ccccc1)CCN(Cc1ccccc1)C2
3. O=C(O)c1ccccc1C(=O)OC1CCc2ccccc2C1 (stereo not drawn)
4. O=C(/C=C/c1ccccc1)CCc1c(O)c2ccccc2oc1=O
5. COc1ccc(C2=C/C(=C/c3ccc(O)cc3O)C(=O)O2)cc1
6. O=C1NC(=O)C(CCC(=O)c2ccc3ccccc3c2)C(=O)N1
7. Cn1c(=O)c2nc(CCCc3nc4ccccc4[nH]3)[nH]c2n(C)c1=O
8. NS(=O)(=O)c1ccc(NCc2cnc3ccccc3c2)cc1

Reply:
112
82.3
105
47.6
19.6
63.3
113
90.6

Kindly give each listed record's Activity.
1. CC(=O)c1cccc(NC(=O)Oc2ccc3c(C)cc(=O)oc3c2)c1
2. Cc1cc(=O)oc(C)c1C(=O)Oc1ccc2ccccc2c1
3. O=C1Nc2ccccc2/C1=N\CCc1c[nH]c2ccccc12
4. O=C1C(=O)C(CCc2ccccc2)C(=O)/C1=C/c1ccccc1 (stereo not drawn)
5. O=C1N=C(Nc2nc3ccccc3[nH]2)OC1c1ccccc1 (stereo not drawn)

Reply:
1: 104; 2: 87.9; 3: 73.5; 4: 105; 5: 121

---

# target.of.assay: Prostaglandin E synthase (Homo sapiens)
# Sequence (whole entry): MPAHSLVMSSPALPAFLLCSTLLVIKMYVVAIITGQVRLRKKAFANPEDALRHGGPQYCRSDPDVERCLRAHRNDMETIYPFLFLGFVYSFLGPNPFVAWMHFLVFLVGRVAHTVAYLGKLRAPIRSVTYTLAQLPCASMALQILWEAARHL
# protocol.description: Inhibition of human mPGES-1 at 10 uM relative to control
The source made the active and inactive calls. The calls are words filed in the database; no cut-off is given here.
parameter: inhibition

Solved cases below.
Task item: Given O=C(c1nc2ccc(Cl)cc2nc1O)C(O)c1ccc2c(c1)OCO2 (stereo unspecified) , state its recorded inhibition.
Reply: inactive

Task item: Endpoint output: inhibition of Oc1nc(Cc2ccc3ccccc3n2)cc(-c2ccccc2)n1 . Value?
Reply: inactive

Task item: Would you kindly share the measured inhibition for N=c1c2c(ncn1Cc1ccccc1)CCN(Cc1ccccc1)C2 ?
Reply: inactive

Task item: Name the recorded inhibition for COc1ccc(C2=C/C(=C/c3ccc(O)cc3O)C(=O)O2)cc1 .
Reply: inactive

Task item: Entry under review: O=C1CCC(CCc2nc3ccccc3[nH]2)(c2ccccc2)C(=O)N1 (stereo unspecified) . Reported inhibition?
Reply: inactive

// for each compound below, give its inhibition
1. CC(=O)NC(CC(=O)Nc1cccc2c1Cc1ccccc1-2)C(=O)O (stereo unspecified)
2. O=C(/C=C/c1ccccc1)CCc1c(O)c2ccccc2oc1=O
3. CC(=O)c1ccc(NCN2C(=O)c3ccccc3C2=O)cc1

Reply:
1: inactive; 2: < 40%; 3: > 50%

Would you mind giving inhibition for every compound in the list below?
1. O=C(O)c1cnc2cc(OCCc3ccc(F)cc3)ccc2c1O
2. Cc1ccc(Nc2nnc(-c3ccc4c(c3)OCO4)o2)c(C)c1
3. Cn1c(=O)c2nc(CCCc3nc4ccccc4[nH]3)[nH]c2n(C)c1=O

Reply:
inactive
< 40%
inactive
